Source: PubChem BioAssay (NCI)

# Test system: HL-60(TB) leukemia
# run description: NCI-60 one-dose screen, 48 h (100 = growth as untreated, 0 = no growth, -100 = all killed)
# details: 10 µM unless noted
This is part of a sample that, as a whole, favours compounds with a hit. Of some 83,000 tested, about 20% had one in any assay.
measured parameter: growth (%)
Kindly provide the numeric value in % only, without the unit symbol.

Problem: Fill in: growth of COC[C@@H](C)n1c(C2CCOCC2)nc2c1C1C=C(OC)C(c3c(C)noc3C)=CC1N=C2 (stereo partly specified) is ___
Result: 11.8

Problem: Do the same for CN(C)c1ccc(-c2cc(-c3cccc(NS(C)(=O)=O)c3)nc(N)c2C#N)cc1 please
Result: 2.91

Problem: Do the same for CC1(C)c2[nH]c3ccccc3c2C[C@]2(C)[C@H]3CC=C4[C@@H]5C[C@@](C)(C(N)=O)CC[C@]5(C)CC[C@@]4(C)[C@]3(C)CC[C@@H]12 please
Result: 55.8

Problem: Do the same for CN(C=O)c1ccccc1 please
Result: 101

Problem: Do the same for CC(O)c1cnc(/C=C2\SC(=S)N(Cc3ccccc3)C2=O)s1 (stereo unspecified) please
Result: 20.4

Problem: Do the same for O=C(O)c1ccc(CNS(=O)(=O)c2ccc3ccccc3c2)cc1 please
Result: 68.1

Problem: Do the same for C#CC[C@@H]1C[C@]2(C)[C@H]3CC[C@@H]4[C@H]5C(C(=C)C)CC[C@]5(C(=O)NCCCN5CCN(CCCN)CC5)CC[C@@]4(C)[C@]3(C)CC[C@H]2C(C)(C)[C@H]1OC(C)=O (stereo partly specified) please
Result: -51.6

Problem: Do the same for C=C(CN1CCc2c([nH]c3ccccc23)C1)c1ccc(C(=O)Nc2ccon2)cc1 please
Result: 99

Problem: Do the same for O=c1cc(-c2ccccc2)oc2cc(OCc3cn(Cc4ccc(F)cc4)nn3)cc(OCc3cn(Cc4ccc(F)cc4)nn3)c12 please
Result: 98

Problem: Do the same for CC(C)n1cnc2c(=S)nc[nH]c21 please
Result: 141

Problem: Do the same for O=C1c2ccccc2C(=O)c2c1ccc(C(Br)Br)c2Cl please
Result: -9.24

----------
# Test system: HL-60(TB) leukemia
# run description: NCI-60 one-dose screen, 48 h (100 = growth as untreated, 0 = no growth, -100 = all killed)
# details: 10 µM unless noted
Compounds without any hit were thinned out: in the full panel of roughly 83,000, 20% have a hit.
Provide the reported growth of each item.
Kindly provide the numeric value in % only, without the unit symbol.

Problem: Fill in: growth of O=C(O)c1ccc2c(c1)CCC2 is ___
Result: 68.3

Problem: Do the same for CC(=O)[C@@H]1CC[C@]2(C(N)=O)CC[C@]3(C)[C@H](CC[C@@H]4[C@@]5(C)CCC(=O)C(C)(C)[C@@H]5CC[C@]43C)[C@@H]12 please
Result: 89.7

Problem: Do the same for Cc1c(N)ccc(-c2ccc(N)c(C)c2S(=O)(=O)O)c1S(=O)(=O)O please
Result: 94.7

Problem: Do the same for CS(=O)(=O)c1ccc(-c2cc(-c3nnc(SCC(=O)Nc4ccc(C(=O)/C=C/c5ccc(Cl)cc5)cc4)n3-c3ccccc3)c3ccccc3n2)cc1 please
Result: 98.9

Problem: Do the same for Cc1[nH]c2ccccc2c(=O)c1CC=C(Cl)Cl please
Result: 57.5

Problem: Do the same for CCSc1nnc2c3cc(Br)ccc3n(C)c2n1 please
Result: 110

Problem: Do the same for O=C1C2=C(CCN(Cc3ccccc3)C2)N2CCN=C2N1Cc1ccc(F)cc1F please
Result: 27.8

Problem: Do the same for [2H]c1nc(Nc2ncc3cc(C(=O)N(C)C)n(C4CCCC4)c3n2)c([2H])c([2H])c1N1C([2H])([2H])C([2H])([2H])NC([2H])([2H])C1([2H])[2H] please
Result: 14.6

Problem: Do the same for CSc1nc(NCCO)c(C#N)c(-c2cccc(N)c2)n1 please
Result: 96.1

Problem: Do the same for CCOC(=O)C12CCCC1=CC(=O)CC2 (configuration not stated) please
Result: 100

Problem: Do the same for COc1cc(-c2cc3ncccc3c3[nH]c(=O)c4cccnc4c23)cc(OC)c1OC please
Result: -7.16

Problem: Do the same for CCN(C(C)=O)c1ccc([N+](=O)[O-])cc1 please
Result: 114

----------
# Test system: HL-60(TB) leukemia
# run description: NCI-60 one-dose screen, 48 h
# details: 10 µM unless noted
The panel holds about 83,000 compounds, 20% with a hit somewhere; the sample as a whole holds those more often. Calls of active or inactive are those of the source. The calls were made as follows: active = growth percent below 10; inactive = the rest.
// allowed return values: Yes (active), No (inactive)

Problem: What did the test return for O=S(=O)(NCCCNc1cc(-c2cn(-c3ccccc3)nc2-c2cccc(O)c2)ccn1)c1ccc(Cl)cc1 ?
Result: Yes

Problem: Do the same for COC(=O)[C@]1(C)CCC[C@]2(C)[C@H]3C[C@H]4C(C(C)C)=C[C@]3(CC[C@H]21)[C@@H]1C(=O)N(CCC#N)C(=O)[C@@H]14 please
Result: No

Problem: Do the same for O=S(=O)(NC1c2ccccc2Oc2ccccc21)c1ccccc1 please
Result: No

Problem: Do the same for Cc1ccc(OC(=O)c2ccc(Cl)cc2)cc1 please
Result: No

Problem: Do the same for CCC(=O)N1C/C(=C/c2ccc(Cl)cc2)C(=O)/C(=C/c2ccc(Cl)cc2)C1 please
Result: Yes

Problem: Do the same for COc1ccc(-n2nnc(C(=O)O)c2-c2cc(OC)c(OC)c(OC)c2)cc1 please
Result: No

Problem: Do the same for COc1ccc2c(c1)CCCC21C(=O)Nc2ccccc21 (configuration not stated) please
Result: No

----------
# Tested on: HL-60(TB) leukemia
# run description: NCI-60 one-dose screen, 48 h (100 = growth as untreated, 0 = no growth, -100 = all killed)
# details: 10 µM unless noted
This is part of a sample that, as a whole, favours compounds with a hit. Of some 83,000 tested, about 20% had one in any assay.
measured parameter: growth (%)
Kindly provide the numeric value in % only, without the unit symbol.

Problem: Missing value: growth, HL-60(TB) leukemia, entry COc1ccc(C(=O)c2c(N)nc3n2CCCC3)cc1OC . Fill in?
Result: 94.1

Problem: Do the same for COc1ccc(-c2nsc3c2NC(=O)CC3c2ccc3c(c2)OCCO3)cc1 (configuration not stated) please
Result: 13

Problem: Do the same for CCN(CC)c1ccc(\C=N/N=C(N)/C(N)=N\N=C/c2ccc(N(CC)CC)cc2)cc1 please
Result: 112

Problem: Do the same for OCc1ncc(-c2ccccc2)s1 please
Result: 91.1

Problem: Do the same for COc1ccc(C2NC(=O)Nc3ccccc32)c(OC)c1 (configuration not stated) please
Result: 93.2

Problem: Do the same for O=C(Nc1ccc(Cl)cc1)Nc1ccc(Cl)c(Cl)c1 please
Result: -23.6

Problem: Do the same for OCc1cccc(-c2ccc3ncc(-c4nc(NC5CC5)ncc4F)n3c2)c1 please
Result: -62

Problem: Do the same for NCCN1CCN(c2nccc(-c3ccc4ccccc4c3)n2)CC1 please
Result: 34.3

Problem: Do the same for COc1ccc(CN2c3ccccc3Sc3ccccc32)cc1F please
Result: -7.46

Problem: Do the same for O=C1Nc2ccc(Br)cc2/C1=N/c1n[nH]c(=S)s1 please
Result: 99.2

Problem: Do the same for Cc1ccc(Cn2c(N3CCC(C(=O)NCc4cccs4)CC3)nc3ccccc32)cc1 please
Result: -14.4

Problem: Do the same for CCN1C(=O)N(CC)C2C1NN=c1s/c(=C3\C(=O)N(C(C)C)c4ccccc43)c(=O)n12 (configuration not stated) please
Result: -22.6

----------
# Tested on: HL-60(TB) leukemia
# run description: NCI-60 one-dose screen, 48 h
# details: 10 µM unless noted
The panel holds about 83,000 compounds, 20% with a hit somewhere; the sample as a whole holds those more often. The source made the active and inactive calls. Rule for the calls: active = growth percent below 10; inactive = the rest.
// allowed return values: YES for active, NO for inactive

Problem: What did the test return for CCCC(O)Cn1ncc(C(=O)OCC)c1NC(=O)NCc1ccccc1F (stereo not given) ?
Result: NO

Problem: Do the same for O=C1C=Cc2ncccc2C1=O please
Result: NO

Problem: Do the same for N=c1c2ccccc2nc2n1CCCCC2 please
Result: NO

Problem: Do the same for NS(=O)(=O)N(c1cc(C(F)(F)F)cc(C(F)(F)F)c1)C1CCN(Cc2ccc(C(F)(F)F)cc2)CC1 please
Result: NO

Problem: Do the same for c1ccc2cc3nc4cc5ccccc5cc4nc3cc2c1 please
Result: NO

Problem: Do the same for CCCCCCCCOc1ccc(/C=N/Nc2cc(C)nc3ccc(Cl)cc23)cc1 please
Result: NO

Problem: Do the same for COC(=O)c1ccc([N+](=O)[O-])c(C)c1 please
Result: NO

Problem: Do the same for COc1cc2c(c(OC)c1OC)CCC(c1cccc(C(=O)Nc3cccc(Br)c3)c1)O2 (stereo not given) please
Result: NO

Problem: Do the same for N#C/C(=C\c1ccc2ccccc2c1)c1cc2ccccc2[nH]1 please
Result: NO

Problem: Do the same for CCc1n(Cc2ccc3ccccc3c2)cc[n+]1Cc1ccc2ccccc2c1 please
Result: YES

Problem: Do the same for COc1ccc(C2=Cn3c(CCC(=O)c4nc5ccccc5[nH]4)nnc3SC2)cc1 please
Result: NO

Problem: Do the same for CCOC(=O)C1=NN(c2ccccc2)C(=O)/C1=C\N1C(=O)CC(=O)NC1=S please
Result: NO

Problem: Do the same for CCOC(=O)CSc1ncnc2c1c(-c1ccccc1)c(-c1ccccc1)n2-c1ccc(C)cc1 please
Result: NO

Problem: Do the same for CCN1CCN(Cc2ccc(NC(=O)Nc3ccc(-n4ccc5c(NC(=O)c6ccccc6)nccc54)cc3)cc2C(F)(F)F)CC1 please
Result: NO

Problem: Do the same for C#Cc1cccc(NC(=O)c2ccc(NC(=O)CCl)cc2)c1 please
Result: NO

Problem: Do the same for CN(C)CCCC1(c2ccc(F)cc2)OCc2cc(-c3cncc4ccccc34)ccc21 (stereo not given) please
Result: NO

Problem: Do the same for Cc1[nH]nc2c(=S)[nH]c(=O)[nH]c12 please
Result: NO

Problem: Do the same for O=C(CN1CCOCC1)Nc1ccc(-c2nc3ccccc3s2)cc1 please
Result: NO

Problem: Do the same for C(=C\c1nc2ccccc2s1)/c1ccc(N2CCOCC2)s1 please
Result: NO

Problem: Do the same for COc1cc2cc(Oc3ccc(NC(=O)Nc4ccc(Cl)c(C(F)(F)F)c4)cc3)c(C)nc2cc1OCCN1CCCCC1 please
Result: NO

Problem: Do the same for c1ccc(C2=NN[C@H](c3cn(-c4ccccc4)nc3-c3ccccc3)C2)cc1 please
Result: NO

Problem: Do the same for CC#Cc1nc2ccccc2c(=O)[nH]1 please
Result: NO

Problem: Do the same for O=c1c2cc(F)ccc2sc2c(NCCCNCCO)nc3ccc(Cl)cc3c12 please
Result: NO

Problem: Do the same for CN([O-])c1nc(N(C)[O-])nc(N2CCOCC2)n1.CN([O-])c1nc(N(C)[OH2+])nc(N2CCOCC2)n1.[Fe+3] please
Result: NO

Problem: Do the same for COC(=O)c1cc(-c2cccs2)c(C#N)c(N)c1C#N please
Result: NO

Problem: Do the same for CC[C@]1(O)C[C@@H]2CN(Cc3c([nH]c4ccccc34)[C@@](C(=O)OC)(c3cc4c(cc3OC)N(C)[C@H]3[C@@](O)(C(=O)OC)[C@H](OC(C)=O)[C@]5(CC)[C@@H]6C[C@@H]6CN6CC[C@]43[C@@H]65)C2)C1 please
Result: YES

Problem: Do the same for O=C(/C=C/c1ccccc1)Oc1ccc(/C=C/c2cc(OC(=O)/C=C/c3ccccc3)cc(OC(=O)/C=C/c3ccccc3)c2)cc1 please
Result: NO

Problem: Do the same for CCCc1ccnc(NS(=O)(=O)c2ccc(N)cc2)n1 please
Result: NO

Problem: Do the same for CCCCC(=O)Nc1ncc(Cc2ccc(Cl)cc2)s1 please
Result: NO

Problem: Do the same for COc1ccc2nc(NC(=O)CSc3nnc4n3S(=O)(=O)c3ccccc3N4c3ccccc3)sc2c1 please
Result: YES

Problem: Do the same for COc1ccc(-c2ccccc2)cc1C(=O)c1ccc(-c2ccccc2)cc1 please
Result: NO

Problem: Do the same for CCN(CC)C(Cl)=Nc1ccc(Cl)cc1 please
Result: NO

Problem: Do the same for COCCn1cc(-c2nc(-c3cccnc3)cs2)c2cc(F)ccc21 please
Result: NO

Problem: Do the same for CN1C(=O)/C(=C/c2nc(-c3cccc(F)c3)n3ccccc23)c2ccccc21 please
Result: NO

Problem: Do the same for COc1cccc(C(=O)N(c2ccc(F)c(F)c2)C(C(=O)NC(C)(C)C)c2cc3c(C)cc(C)cc3nc2Cl)c1 (stereo not given) please
Result: NO
